test: qHTS for Inhibitors of human tyrosyl-DNA phosphodiesterase 1 (TDP1): qHTS in cells in absence of CPT; settings: DT40 Tdp1-/- hTDP1 cells, no CPT, ATP luminescence, 48 h; further: nearly all actives have a fitted effect of over 55% in size
In all, about 420,000 compounds went through this assay and about 64,000 (15%) were called active. Another 27% or so got no clear call; they are omitted. The call rests on the fitted dose curve; in most records, active means well fitted inhibition curve with a large enough effect; inconclusive means small, poorly fitted or top-dose-only effect; inactive means flat fitted curve, though single readings scatter. Only a sample is shown.
Returns: one label drawn from active, inactive

Example results:
CCCCNCc1ccc(SC)cc1: inactive
CCOc1ccc(-c2c(C)n([O-])c3c([n+]2=O)CCCC3)cc1: inactive
COc1ccccc1C(=O)NC(CCSC)C(=O)N1CCN(C(C)=O)CC1 (stereo unspecified): inactive

Prompt: # outcome recorded in this test, key = Cc1cc2nnc(SCC(=O)N3CCN(c4ccccc4)CC3)n2c(N)n1
Completion: inactive

Prompt: Given Cn1c(Cc2cccc3ccccc23)nnc1SCC(=O)N1CCN(c2cccc(Cl)c2)CC1 , state the outcome it received in this test.
Completion: active

Prompt: Fill in: this test's call for COc1ccccc1C(=O)NC(CCSC)C(=O)N1CCN(C/C=C/c2ccccc2)CC1 (stereo unspecified) is ___
Completion: active

Prompt: Hi, sorry to bother you, what did the test record for O=C(C1CC(=O)N(C2CCCC2)C1)N1CCN(c2cccc(C(F)(F)F)c2)CC1 (stereo unspecified) ?
Completion: active

Prompt: I'd appreciate the recorded outcome for Cc1ccc(C)c(N2CCN(C(=O)CCc3c(C)nc4c(c3C)c(=O)n(C)c(=O)n4C)CC2)c1 from this test.
Completion: inactive

Prompt: Dear all, I need the recorded test outcome for O=C(NC(=S)N1CCN(Cc2ccccc2)CC1)c1ccccc1 , thank you.
Completion: inactive

Prompt: Dear all, I need the recorded test outcome for CCCn1nc(NS(=O)(=O)c2ccccc2)c2cc3cc(C)ccc3nc21 , thank you.
Completion: inactive

----------
experiment: qHTS for Inhibitors of human tyrosyl-DNA phosphodiesterase 1 (TDP1): qHTS in cells in absence of CPT; conditions: DT40 Tdp1-/- hTDP1 cells, no CPT, ATP luminescence, 48 h; further: nearly all actives have a fitted effect of over 55% in size
The whole screen tested about 420,000 compounds, of which about 64,000 (15%) were called active. About 27% were inconclusive and are not listed. Calls follow the shape of the dose curve; as a rule, active = well fitted inhibition curve with a large enough effect; inconclusive = small, poorly fitted or top-dose-only effect; inactive = flat fitted curve, though single readings scatter. The list is a sample of the results.
// classify into yes (1) (active), no (0) (inactive)

Below are worked cases with known answers.
Cc1ccc(S(=O)(=O)N(C)c2ccc(OCC(=O)OCc3ccc(C#N)cc3)cc2)cc1: no (0)
CCc1ccc(NC(=O)NC(C)c2ccc3c(c2)OCO3)cc1 (configuration not stated): no (0)
CC(NC(=O)Nc1ccc2c(c1)OCO2)c1ccncc1 (configuration not stated): no (0)
CCn1c(Cc2ccccc2)nnc1SCC(=O)Nc1ccccc1: no (0)
CCOC(=O)c1nc(N)sc1C(=O)OCC: no (0)
COc1ccc(CN2CCNC(=O)C2CC(=O)NCc2cn[nH]c2-c2ccccc2)c(F)c1 (configuration not stated): no (0)

Prompt: Given CCOCCCNCc1cc(Br)ccc1OCC , state the outcome it received in this test.
Completion: no (0)

Prompt: Recorded test outcome, item CNC[C@H](CC1CCCCC1)NC[C@H](NCCC1CCCC1)[C@H](C)O
Completion: yes (1)

Prompt: So what was the verdict on CCOc1ccc(Br)cc1S(=O)(=O)N1CCC(C(=O)O)CC1 in this test?
Completion: no (0)

Prompt: Tell me the recorded outcome of this test for COc1ccccc1C(=O)NC(=O)COC(=O)C1CC1 .
Completion: no (0)

Prompt: Could you please tell me the result logged for CC(C)(C)NCc1cc(Br)ccc1OC1CCCC1 in this assay?
Completion: yes (1)

Prompt: Identify the outcome logged in this assay for the compound shown: CN(c1ccc(OCC(=O)O)cc1)S(=O)(=O)c1ccc2ccccc2c1
Completion: no (0)
